# target-entity: HLA-B*15:01
# method: IEDB peptide-MHC binding, purified MHC/competitive/fluorescence; filed as Kd, often an IC50 or EC50 that approximates it; bounds were set here for any values at or beyond the usual limits of such assays
# measurement-conditions: source organism: Rickettsia akari str. Hartford
quantity-name: Kd

| residue-codes | target-entity | measured |
| --- | --- | --- |
| FTARIIIFS | HLA-B*15:01 | ≥ 20 µM |

====

# target-entity: HLA-A*02:01
# method: IEDB peptide-MHC binding, purified MHC/competitive/radioactivity; filed as Kd, often an IC50 or EC50 that approximates it; bounds were set here for any values at or beyond the usual limits of such assays
# measurement-conditions: source organism: Trypanosoma cruzi

| residue-codes | Kd [nM] |
| --- | --- |
| SLNRNFTLV | 23.6 |
| LLGLWGFATA | 65.1 |
| ELLRPTTVV | 6710 |

====

# target-entity: HLA-A*26:01
# method: IEDB peptide-MHC binding, purified MHC/competitive/fluorescence; filed as Kd, often an IC50 or EC50 that approximates it; bounds were set here for any values at or beyond the usual limits of such assays
# measurement-conditions: source organism: Shigella boydii CDC 3083-94

| residue-codes | Kd |
| --- | --- |
| GMMRWCMPV | ≥ 20 µM |

====

# target-entity: HLA-A*30:01
# method: IEDB peptide-MHC binding, purified MHC/competitive/fluorescence; filed as Kd, often an IC50 or EC50 that approximates it; bounds were set here for any values at or beyond the usual limits of such assays
# measurement-conditions: source organism: Vaccinia virus WR
pKd: −log10 of the molar value.
quantity-name: pKd

| residue-codes | target-entity | measured |
| --- | --- | --- |
| TESDAIRTL | HLA-A*30:01 | ≤ 4.70 |

====

# target-entity: HLA-A*02:03
# method: IEDB peptide-MHC binding, purified MHC/direct/fluorescence; filed as Kd, often an IC50 or EC50 that approximates it; bounds were set here for any values at or beyond the usual limits of such assays
# measurement-conditions: source organism: Sudan ebolavirus

| residue-codes | Kd |
| --- | --- |
| YTENTSSYY | ≥ 20 µM |

====

# target-entity: HLA-A*02:19
# method: IEDB peptide-MHC binding, purified MHC/direct/fluorescence; filed as Kd, often an IC50 or EC50 that approximates it; bounds were set here for any values at or beyond the usual limits of such assays
# measurement-conditions: source organism: Ravn virus - Ravn, Kenya, 1987
pKd: −log10 of the molar value.
quantity-name: pKd

| residue-codes | quantity-name | measured |
| --- | --- | --- |
| HSGFIYFGK | pKd | ≤ 4.70 |

====

# target-entity: HLA-B*39:01
# method: IEDB peptide-MHC binding, purified MHC/competitive/fluorescence; filed as Kd, often an IC50 or EC50 that approximates it; bounds were set here for any values at or beyond the usual limits of such assays
# measurement-conditions: source organism: Salmonella enterica subsp. enterica serovar Typhi
pKd: −log10 of the molar value.

| residue-codes | pKd |
| --- | --- |
| NTDEIPELI | ≤ 4.70 |

====

# target-entity: HLA-A*24:02
# method: IEDB peptide-MHC binding, purified MHC/competitive/radioactivity; filed as Kd, often an IC50 or EC50 that approximates it; bounds were set here for any values at or beyond the usual limits of such assays
# measurement-conditions: source organism: Dengue virus 3 Martinique/1243/1999

| residue-codes | Kd / nM |
| --- | --- |
| KYTDRKWCF | 138 |
| PYMPTVIEHL | 46.2 |

Recorded values, source the Immune Epitope Database (IEDB).
